For each entry below, report its self-cleavage kobs at 160 uM GlcN6P value.
B1: glmS ribozyme (parent)
chain: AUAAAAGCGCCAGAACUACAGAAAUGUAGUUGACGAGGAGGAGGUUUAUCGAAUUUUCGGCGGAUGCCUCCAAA

variants of: B1; assay: self-cleavage kobs at 160 uM GlcN6P; higher = faster cleavage; RNA array; conditions: with glucosamine-6-phosphate
This sample holds only a part of the variants without activity.

Provide reported self-cleavage kobs at 160 uM GlcN6P for each item, in the same order as listed.
1. U31G G35A C67A
2. G13U G38U U65G
3. G7U A12G G32U
4. C10U G62C

Key:
1. < 1e-05 s⁻¹
2. < 1e-05 s⁻¹
3. < 1e-05 s⁻¹
4. < 1e-05 s⁻¹

Parameter requested: self-cleavage kobs at 160 uM GlcN6P. Apply to each item below.
1. U30C G41C U49G G51U C58A
2. A39C G59U C61A
3. G13C U45C U46C C68A C70G
4. U17G

Key:
< 1e-05 s⁻¹
< 1e-05 s⁻¹
< 1e-05 s⁻¹
0.00191 s⁻¹
